Values were extracted from paper PMC6943437.

Tested on: P. falciparum W2
Format: cell-based
Details: P. falciparum W2 (CQ-resistant), 48 h, n = 3
pIC50: −log10 of the molar value. *1 amine or outer side, *2 acyl side, *3 side chain or, on linkers, in order; H or OH if unused. Where a SMILES comes first, the peptide text is derived from it. The star is where a group is joined. NH(CH2)4NH(7-Cl-4-quinolyl) = Clc1ccc2c(NCCCCN*)ccnc2c1; Suc = O=C(CCC(=O)[*:2])[*:1]
Reported pIC50 values for a set of compounds

# Compound, Value
measured = [
    ("N=C(N)NCCC[C@H](NC(=O)CN)C(=O)N[C@@H](CCCCN)C(=O)N[C@@H](CCCCN)C(=O)N[C@@H](CCCNC(=N)N)C(=O)N[C@@H](CCCNC(=N)N)C(=O)N[C@@H](CCC(N)=O)C(=O)N[C@@H](CCCNC(=N)N)C(=O)N[C@@H](CCCNC(=N)N)C(=O)N[C@@H](CCCNC(=N)N)C(=O)N1CCC[C@H]1C(=O)N1CCC[C@H]1C(=O)N[C@@H](CCC(N)=O)C(N)=O", "< 5.00"),
]

Alright, here's another compound for you.
// pIC50 value for CC[C@H](C)[C@H](NC(=O)[C@H](CCCCN)NC(=O)[C@@H](NC(=O)[C@H](CCC(=O)O)NC(=O)[C@H](CCCNC(=N)N)NC(=O)[C@H](CCCCN)NC(=O)[C@@H](NC(=O)[C@H](CCCCN)NC(=O)[C@H](CCCCN)NC(=O)[C@H](CCCCN)NC(=O)[C@H](CCCCN)NC(=O)[C@@H](NC(=O)CCC(=O)NCCCCNc1ccnc2cc(Cl)ccc12)C(C)C)[C@@H](C)CC)[C@@H](C)CC)C(N)=O [5c] ({NH(CH2)4NH(7-Cl-4-quinolyl)-Suc}-VKKKKIKREIKI-NH2) : < 5.00
